# Tested on: human PBMCs
# experimental details: Human PBMC cytokine response assay (IFN-γ and IFN-α in cell-free medium by ELISA), with or without cPLGA
# Format: cell-based
# measurement conditions: donor 28068; 20 ug/ml, 24 h; + PLGA = premixed with 100 μg/ml cPLGA
Strand notation (5' to 3'): a small letter for the sugar, then the base; units joined by * are phosphorothioate-linked, units joined directly phosphodiester-linked; [ ] holds rarer units or linkages, { } end groups; capitals alone tell only the bases. d = 2'-deoxy (DNA)
Classification field: enter met for IFN-α (pg/ml) 28068 values not below 100 pg/mL, not met for values below it.

Solved entries:
[[record]]
substance = "5′-ACGTTCG-3′-HEG-5′-ACGTTCG-3′-HEG-5′-AGATGAT-3′ [Compound C-24]"
test_target = "human PBMCs"
qualitative_label = "not met"

[[record]]
substance = "5′-TCGTCG-3′-HEG-5′-AACGTT-3′-HEG-5′-AGATGAT-3′ [Compound C-23]"
test_target = "human PBMCs"
qualitative_label = "met"

[[record]]
substance = "5′-TCGTCG-3′ [Compound P-2, reference compound]"
test_target = "human PBMCs"
qualitative_label = "not met"

[[record]]
substance = "5′-TGCTGC-3′-HEG-5′-AGCTTGC-3′-HEG-5′-AGATGAT-3′ [Compound M-1, reference compound]"
test_target = "human PBMCs"
qualitative_label = "not met"

[[record]]
substance = "5′-TCGTCG-3′-HME-5′-ACGTTCG-3′-HME-5′-AGATGAT-3′ [Compound C-25]"
test_target = "human PBMCs"
qualitative_label = "not met"

[[record]]
substance = "5′-TCGTCGA-3′-HEG-5′-TCGTCGA-3′-HEG-5′-TCGTCGA-3′ [Compound C-21]"
test_target = "human PBMCs"
qualitative_label = "met"

[[record]]
substance = "5′-TCGTCG-3′-abasic-5′-ACGTTCG-3′-abasic-5′-AGATGAT-3′ [Compound C-20]"
test_target = "human PBMCs"
qualitative_label = "not met"

[[record]]
substance = "5′-TCGTCG-3′-TEG-5′-ACGTTCG-3′-TEG-5′-AGATGAT-3′ [Compound C-18]"
test_target = "human PBMCs"
qualitative_label = "met"


Inquiry: Does (5′-TCGTCGA-3′)2-glycerol-5′-TCGTCGA-3′ [Compound C-28] have a reported IFN-α (pg/ml) 28068 of at least 100 pg/mL?
Reply text: not met

Inquiry: Does (5′-TCGTCGA-3′)2-glycerol-5′-AACGTTC-3′ [Compound C-27] have a reported IFN-α (pg/ml) 28068 of at least 100 pg/mL?
Reply text: not met

Inquiry: Does 5′-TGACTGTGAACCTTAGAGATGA-3′ (SEQ ID NO: 3) (dT*dG*dA*dC*dT*dG*dT*dG*dA*dA*dC*dC*dT*dT*dA*dG*dA*dG*dA*dT*dG*dA) [Compound P-7, negative control, reference compound] have a reported IFN-α (pg/ml) 28068 of at least 100 pg/mL?
Reply text: not met

Inquiry: Does 5′-TCGTCG-3′-HEG-5′-ACGTTCG-3′-HEG-5′-AGATGAT-3′ [Compound C-10] have a reported IFN-α (pg/ml) 28068 of at least 100 pg/mL?
Reply text: met

Inquiry: Does 5′-TCGTCGA-3′-HEG-5′-ACGTTCG-3′-HEG-5′-AGATGAT-3′ [Compound C-8] have a reported IFN-α (pg/ml) 28068 of at least 100 pg/mL?
Reply text: met

Inquiry: Does 5′-TCGTCG-3′-C4-5′-ACGTTCG-3′-C4-5′-AGATGAT-3′ [Compound C-17] have a reported IFN-α (pg/ml) 28068 of at least 100 pg/mL?
Reply text: not met

Inquiry: Does 5′-AGATGAT-3′ [Compound P-4, reference compound] have a reported IFN-α (pg/ml) 28068 of at least 100 pg/mL?
Reply text: not met

Inquiry: Does 5′-TCGTCG-3′-C12-5′-ACGTTCG-3′-C12-5′-AGATGAT-3′ [Compound C-19] have a reported IFN-α (pg/ml) 28068 of at least 100 pg/mL?
Reply text: not met

Inquiry: Does 5′-ACGTTCG-3′ [Compound P-3, reference compound] have a reported IFN-α (pg/ml) 28068 of at least 100 pg/mL?
Reply text: not met

Inquiry: Does 5′-TCGTCGA-3′- C3-5′-ACGTTCG-3′-C3-5′-AGATGAT-3′ [Compound C-9] have a reported IFN-α (pg/ml) 28068 of at least 100 pg/mL?
Reply text: not met

Data credit: patent US9028845B2
